# MEASURED TARGET: the molecule itself
# PROTOCOL NOTES: AUC; sedimentation velocity, c(s) analysis in SEDFIT; sevenfold (hOtolC1q forms) or 14-fold (dOtolC1q forms) molar excess of TbCl3; protein 0.20-0.25 mg/mL; self-association of the gC1q domain into trimers
MEASURED METRIC: stoichiometry N
# respond with the number and nothing more

Recorded result, dOtolC1q D440A (domain or fragment, zebrafish (Danio rerio), UniProt A5PN28 351-488, looked up, gC1q (C1q-like) domain of zebrafish otolin-1, UniProt A5PN28, with D440A; Same construct as m6 with the mutation) AVQKRSAFSVGLFPSRSFPPPGLPIRFDKIIYNEEAHWDPNASKFNCTHGGVYVFSYYITVRNRPLRAALVVNGIRKLRTRDSLYGQDIAQASNMAVLRLSSGDQVWLETLRDWNGVYSSSEDDSTFSGFLLYADATK , stoichiometry N: 3
